# Tested on: HL-60
# TEST PROTOCOL: NCI tumour cell line growth inhibition, 48 h
Activity calls are given as the source filed them. No stated cut-off is given here; in the data, active = GI50 up to about 1.1 µM and inactive = higher.
Assign a class; possible classes are true = active, false = inactive

Example results:
>  <COMPOUND>
NC(=O)c1cccc(OCC(O)CO)c1 (stereo unspecified)

>  <EXPERIMENTAL TARGET>
HL-60

>  <GROUP>
false

$$$$
>  <COMPOUND>
CN(C)[C@@H]1C(O)=C(C(=O)NCNc2nc3[nH]nnc3c(=O)[nH]2)C(=O)[C@@]2(O)C(O)=C3C(=O)c4c(O)cccc4[C@@](C)(O)[C@H]3C[C@@H]12

>  <EXPERIMENTAL TARGET>
HL-60

>  <GROUP>
true

$$$$
>  <COMPOUND>
COc1cc(O)cc(O)c1C(=O)CC(Cl)(Cl)Cl

>  <EXPERIMENTAL TARGET>
HL-60

>  <GROUP>
false

$$$$
>  <COMPOUND>
O=C1CSC(=S)N1/N=C/c1ccc(Cl)c([N+](=O)[O-])c1

>  <EXPERIMENTAL TARGET>
HL-60

>  <GROUP>
false

$$$$
>  <COMPOUND>
Cc1ccc(NC(=O)CC(=O)N2N=C(N(c3ccccc3)c3ccccc3)CC2c2ccccc2)cc1 (stereo unspecified)

>  <EXPERIMENTAL TARGET>
HL-60

>  <GROUP>
false

$$$$

Hi, do you know how O=C(O)C1C2C=CC(O2)C1C(=O)NCc1cccnc1 (stereo unspecified) came out in this test? false

Hi, do you know how O=C(c1ccccc1)C1OC12C(=O)Nc1ccccc12 (stereo unspecified) came out in this test? false

Hi, do you know how CC1=C(C(=O)OCCO[N+](=O)[O-])C(c2cccc([N+](=O)[O-])c2)C(C(=O)OC(C)C)=C(C)N1 (stereo unspecified) came out in this test? false

Hi, do you know how `CCOc1ccc(Nc2nc(N)nc(N)c2N=O)cc1` came out in this test? false
